The reported measurements were obtained from patent US12606552B2.

- experimental.target: AR (Homo sapiens, UniProt P10275, T878A)
- Sequence (P10275 whole entry T878A): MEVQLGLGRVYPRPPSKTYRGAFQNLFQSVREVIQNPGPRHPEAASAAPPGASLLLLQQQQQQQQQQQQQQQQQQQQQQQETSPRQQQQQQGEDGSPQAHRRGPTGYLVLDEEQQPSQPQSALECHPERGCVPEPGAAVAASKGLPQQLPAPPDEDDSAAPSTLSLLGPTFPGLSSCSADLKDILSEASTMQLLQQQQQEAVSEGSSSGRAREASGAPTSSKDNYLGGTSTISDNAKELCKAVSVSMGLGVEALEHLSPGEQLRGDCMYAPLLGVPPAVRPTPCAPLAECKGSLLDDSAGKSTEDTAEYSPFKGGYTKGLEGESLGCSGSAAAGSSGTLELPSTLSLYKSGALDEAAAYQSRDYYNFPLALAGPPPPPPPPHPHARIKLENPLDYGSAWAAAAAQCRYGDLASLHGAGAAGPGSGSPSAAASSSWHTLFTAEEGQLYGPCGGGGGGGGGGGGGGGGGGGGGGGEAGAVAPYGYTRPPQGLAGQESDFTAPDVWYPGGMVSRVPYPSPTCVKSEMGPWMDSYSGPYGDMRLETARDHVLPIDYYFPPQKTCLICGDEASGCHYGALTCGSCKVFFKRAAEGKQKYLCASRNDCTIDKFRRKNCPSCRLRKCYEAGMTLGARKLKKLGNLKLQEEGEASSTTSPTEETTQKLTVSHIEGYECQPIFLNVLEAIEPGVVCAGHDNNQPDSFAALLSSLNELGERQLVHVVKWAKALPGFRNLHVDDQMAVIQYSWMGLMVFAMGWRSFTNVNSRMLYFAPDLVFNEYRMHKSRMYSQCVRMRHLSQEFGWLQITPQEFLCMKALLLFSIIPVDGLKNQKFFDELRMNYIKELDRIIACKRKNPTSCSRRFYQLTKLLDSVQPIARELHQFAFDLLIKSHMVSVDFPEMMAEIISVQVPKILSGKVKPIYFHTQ
- assay.method.text: Effects of compounds on AR expression in LNCaP cells (ELISA, DC50)
- Type: cell-based
- Set-up: Measurement of the Effects of Drugs on the Expression of AR in Cells by ELISA Method; endogenous in cells; host or cells: LNCaP
- assay.setup: 24 hours of drug treatment, AR by ELISA
measured.property: DC50 (µM)

| molecule | readout.number |
| --- | --- |
| Cc1ncsc1-c1ccc([C@H](C)NC(=O)[C@@H]2C[C@@H](O)CN2C(=O)[C@@H](NC(=O)COCCOc2ccc(-c3ncc(N4C(=S)N(c5ccc(C#N)c(C(F)(F)F)c5F)C(=O)C4(C)C)cc3F)cc2F)C(C)(C)C)cc1 | 0.0613 |
| Cc1ncsc1-c1ccc(CNC(=O)[C@@H]2C[C@@H](O)CN2C(=O)[C@@H](NC(=O)COCCCCOc2ccc(-c3ncc(N4C(=S)N(c5ccc(C#N)c(C(F)(F)F)c5F)C(=O)C4(C)C)cc3C(F)(F)F)cc2C#N)C(C)(C)C)cc1 | 0.0894 |
| CC1(C)C(=O)N(c2ccc(C#N)c(C(F)(F)F)c2F)C(=S)N1c1ccc(-c2ccc(OCCNC(=O)COc3ccc4c(c3)C(=O)N(C3CCC(=O)NC3=O)C4=O)cc2)nc1 (stereo not shown) | 0.0586 |
| CC(C)(C)[C@H](NC(=O)COCCCCOc1ccc(-c2ccc(N3C(=S)N(c4ccc(C#N)c(C(F)(F)F)c4F)C(=O)C3(C)C)cn2)cc1)C(=O)N1C[C@H](O)C[C@H]1c1nc(-c2cccs2)c[nH]1 | 0.856 |
